Data origin: patent US20240247080A1

Each record here notes measured EC50.
Molecular target: hNPY2R (Homo sapiens, UniProt P49146)
Construct: expressed in transfected cells; host or cells: HEK-293 cells carrying a CRE-luciferase reporter gene
Sequence (P49146 whole entry): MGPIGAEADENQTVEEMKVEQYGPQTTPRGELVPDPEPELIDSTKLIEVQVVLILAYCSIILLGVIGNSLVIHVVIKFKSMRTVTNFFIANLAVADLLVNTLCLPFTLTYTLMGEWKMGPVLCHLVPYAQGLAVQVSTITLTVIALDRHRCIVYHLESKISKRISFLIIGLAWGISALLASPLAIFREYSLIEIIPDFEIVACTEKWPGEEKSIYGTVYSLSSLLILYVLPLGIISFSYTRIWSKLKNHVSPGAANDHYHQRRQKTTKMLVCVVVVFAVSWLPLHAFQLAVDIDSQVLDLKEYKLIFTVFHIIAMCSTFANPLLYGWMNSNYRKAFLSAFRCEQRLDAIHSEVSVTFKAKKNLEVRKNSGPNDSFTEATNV
Experiment: hNPY2R CreLuc reporter gene assay in 0.5% and 100% plasma
Format: cell-based
Details: CreLuc reporter gene assay, 100% human plasma; read-out: hNPY2R 100% hP
Procedure: Example 1: hGLPR/hGIPR/hNPY2R CreLuc Assay in 0.5% and 100% Plasma CHO and HEK-293 recombinant cell lines express a luciferase reporter gene under control of the cAMP responsive element (CRE). […] Following incubation, assay plates are equilibrated to room temperature, followed by addition of 25 μl of Bright-GIo™ Luciferase reagent, incubation at room temperature for 10 minutes and analysis of luminescence (Envision Reader). […]
Starred links: 1 amine or outer side, 2 acyl side, 3 side chain; linkers in the order of their positions; H or OH if unused. Non-standard residues stand in square brackets, D forms with d. Groups on a side chain read outwards from the residue. *: point of attachment. C20 diacid = O=C(O)CCCCCCCCCCCCCCCCCCC(=O)*; C18 diacid = O=C(O)CCCCCCCCCCCCCCCCC(=O)*; γGlu = O=C(O)[C@H](CCC(=O)[*:2])N[*:1]; εLys = N[C@@H](CCCCN[*:1])C(=O)[*:2]; AEEA = NCCOCCOCC(=O)O; Aib = CC(C)(N)C(=O)O
resultType: EC50 (nM)

[[record]]
substance = "H-Y[Aib]EGTFTSDYSI[Aib]LEKQAQ[Aib]AFVQWLIK([εLys-γGlu-γGlu-γGlu-γGlu-γGlu-γGlu-C20 diacid])GGPSEYVSLRHYYNWLTRQRY-NH2 [Compound 78]"
systemname = "hNPY2R (Homo sapiens, UniProt P49146)"
resulttype = "EC50"
unittext = "nM"
resultvalue = 24.6

[[record]]
substance = "H-Y[Aib]EGTFTSDYSI[Aib]LEKQAQ[Aib]AFVEWLIK([AEEA-AEEA-γGlu-γGlu-γGlu-γGlu-γGlu-C18 diacid])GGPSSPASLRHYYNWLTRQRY-NH2 [Compound 140]"
systemname = "hNPY2R (Homo sapiens, UniProt P49146)"
resulttype = "EC50"
unittext = "nM"
resultvalue = 45.9

[[record]]
substance = "H-Y[Aib]EGTFTSDYSI[Aib]LEKQAQ[Aib]AFVQWLIK([AEEA-AEEA-γGlu-γGlu-γGlu-γGlu-γGlu-C18 diacid])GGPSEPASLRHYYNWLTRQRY-NH2 [Compound 142]"
systemname = "hNPY2R (Homo sapiens, UniProt P49146)"
resulttype = "EC50"
unittext = "nM"
resultvalue = 28.2

